A collection of compounds and their measured IC50
# Test system: neutrophiles humains
# Protocol: Free radical production by FMLPA-stimulated human neutrophils (cytochrome C reduction)
# Type: cell-based
# Condition summary: Neutrophil, reduced cytochrome C at 550 nm, read-out: CI50 (the source's name)
Lab book: enter the figure in µM, no units written.

Please review the entries below; each comes with its answer.
Compound	Endpoint value
CCOC(=O)C1=C(C)NC(C)=C(C(=O)OC(C)C)C1c1cc(C(C)(C)C)c(O)c(C(C)(C)C)c1 (stereo not shown) [Exemple 2]	10.2
Cc1cc(C(C)(C)C)c(O)c(C(C)(C)C)c1 [HTB, hydroxytoluène butylé, reference compound]	20
CCOC(=O)C1=C(C)NC(C)=C(C(=O)OC)C1c1cc(C(C)(C)C)c(O)c(C(C)(C)C)c1 (stereo not shown) [Exemple 1]	10.9

Please find the next compound below.
Qu. What value of measured IC50 is listed for CCOC(=O)C1=C(C)NC(C)=C(C(=O)OCC(C)C)C1c1cc(C(C)(C)C)c(O)c(C(C)(C)C)c1 (stereo not shown) [Exemple 10] ?
Ans. 10.5
